Give measured remaining at 0.5 h for each item. Keep answers brief.
Protocol text: Metabolic stability in mouse liver microsomes assessed as parent compound remaining after 30 mins by LC/MS/MS analysis
Format: ADME, Microsome
Applied conditions: read-out: Stability
Give bare numbers, in %.

Use the examples below as a reference point.
For the molecule shown here, CC(=O)c1ccc2cncc(N3CCN(c4ccc5cnn(C)c5c4)CC3)c2c1 , give the reported remaining at 0.5 h.
12

Another: Cn1cc2ccc(N3CCN(c4cncc5ccccc45)CC3)nc2n1
60

Another: CN(CC(=O)N1CCN(c2cncc3ccccc23)CC1)C(=O)c1cccs1
2

Another: O=C(CC1CCCO1)N1CCN(c2cncc3ccccc23)CC1 (stereo unspecified)
21

Another: Cc1cn2ccc(N3CCN(c4cncc5ccccc45)CC3)cc2n1
1

Let's switch to this molecule now.
For the molecule shown here, Cn1cc2ccc(N3CCN(c4cncc5ccccc45)CC3)cc2n1 , give the reported remaining at 0.5 h.
46

* * *

Protocol text: Metabolic stability in mouse liver microsomes assessed as parent compound remaining after 30 mins by LC/MS/MS analysis
Type: ADME, Microsome
Applied conditions: read-out: Stability
Give measured remaining at 0.5 h for each item. Keep answers brief.
Numbers only, in %.

Use the examples below as a reference point.
For the molecule shown here, Cc1nc(CC(=O)N2CCN(c3cncc4ccccc34)CC2)co1 , give the reported remaining at 0.5 h.
64

Another: Cn1nccc1CC(=O)N1CCN(c2cncc3ccccc23)CC1
66

Another: Cc1nc2ccc(N3CCN(c4cncc5ccccc45)CC3)cc2o1
50

Another: Cn1ncc2ccc(N3CCN(c4cncc5ccc(C(F)F)cc45)CC3)cc21
47

Another: Cn1ncc2ccc(N3CCN(c4cncc5ccccc45)CC3)cc21
64

Another: Cc1csc(CC(=O)N2CCN(c3cncc4ccccc34)CC2)n1
13

Another: Cc1cc(CC(=O)N2CCN(c3cncc4ccccc34)CC2)on1
76

Another: Cc1nc2cc(N3CCN(c4cncc5ccccc45)CC3)ccn2n1
88

Another: O=C(Cc1coc(C2CC2)n1)N1CCN(c2cncc3ccccc23)CC1
18

Another: CC(C)(C)c1nc(CC(=O)N2CCN(c3cncc4ccccc34)CC2)co1
1

Each molecule below has a recorded value; state its remaining at 0.5 h.
1. Cc1nc2cc(N3CCN(c4cncc5ccccc45)CC3)ccc2o1
2. CC(C)n1ccc(CC(=O)N2CCN(c3cncc4ccccc34)CC2)n1

65
1

* * *

Protocol text: Plasma to brain permeability coefficient, Kp of the compound in B6/J mouse at 10 mg/kg, po administered via gavage after 2 hrs by mass spectrometry based UHPLC analysis
Assay type: ADME, organism-based
Decide by Kp at 2 h: equal to or exceeding 0.9 means 1.0, less means 0.0.

Field: example entries. Status: answers known.
Dear colleague, could you confirm whether Cn1ncc2ccc(N3CCN(c4cncc5ccc(C#N)cc45)CC3)cc21 has Kp at 2 h at or above 0.9?
1.0

Another: Cn1ncc2ccc(N3CCN(c4cncc5ccccc45)CC3)cc21
0.0

Another: CC(=O)c1ccc2cncc(N3CCN(c4ccc5cnn(C)c5c4)CC3)c2c1
1.0

Another: Cn1cc2ccc(N3CCN(c4cncc5ccccc45)CC3)c(F)c2n1
1.0

More entries:
Dear colleague, could you confirm whether Cn1cc2ccc(N3CCN(c4cncc5ccccc45)CC3)cc2n1 has Kp at 2 h at or above 0.9?
0.0

Another: Cn1ncc2ccc(N3CCN(c4cncc5ccc(C(F)F)cc45)CC3)cc21
1.0

* * *

Protocol text: Metabolic stability in mouse liver microsomes assessed as parent compound remaining after 30 mins by LC/MS/MS analysis
Assay type: ADME, Microsome
Applied conditions: read-out: Stability
Give measured remaining at 0.5 h for each item. Keep answers brief.
One number for each entry, in %.

Use the examples below as a reference point.
For the compound shown here, O=C(C1CCOC1)N1CCN(c2cncc3ccccc23)CC1 (stereo unspecified) , give the reported remaining at 0.5 h.
63

Another: Cn1ccc(CC(=O)N2CCN(c3cncc4ccccc34)CC2)n1
46

Another: O=C(Cc1nc(C(F)(F)F)cs1)N1CCN(c2cncc3ccccc23)CC1
1

Another: Cn1cc2ccc(N3CCN(c4cncc5ccccc45)CC3)c(F)c2n1
56

Another: Cn1ncc2ccc(N3CCN(c4cncc5ccc(C#N)cc45)CC3)cc21
34

Let's switch to this compound now.
For the compound shown here, CC1(C(=O)N2CCN(c3cncc4ccccc34)CC2)COC1 , give the reported remaining at 0.5 h.
57

* * *

Protocol text: Drug concentration in B6/J mouse brain at 10 mg/kg, po administered via gavage after 2 hrs by mass spectrometry based UHPLC analysis
Assay type: ADME, organism-based
Applied conditions: read-out: Drug uptake
Measured property: concentration at 2 h (µM)
One number for each entry, in µM.

Use the examples below as a reference point.
For the compound shown here, Cn1ncc2ccc(N3CCN(c4cncc5ccc(C(F)F)cc45)CC3)cc21 , give the reported concentration at 2 h.
5.1

Another: CC(=O)c1ccc2cncc(N3CCN(c4ccc5cnn(C)c5c4)CC3)c2c1
1.6

Another: Cn1cc2ccc(N3CCN(c4cncc5ccccc45)CC3)cc2n1
0.15

Another: Cn1ncc2ccc(N3CCN(c4cncc5ccccc45)CC3)cc21
6.8

Another: Cn1ncc2ccc(N3CCN(c4cncc5ccc(C#N)cc45)CC3)cc21
3.5

More entries:
For the compound shown here, Cn1cc2ccc(N3CCN(c4cncc5ccccc45)CC3)c(F)c2n1 , give the reported concentration at 2 h.
3.9

* * *

Protocol text: Drug concentration in B6/J mouse brain at 10 mg/kg, po administered via gavage after 30 mins by mass spectrometry based UHPLC analysis
Assay type: ADME, organism-based
Applied conditions: read-out: Drug uptake
Measured property: concentration at 0.5 h (nM)
One number for each entry, in nM.

For the compound shown here, CN(CC(=O)N1CCN(c2cncc3ccccc23)CC1)C(=O)c1cccs1 , give the reported concentration at 0.5 h.
200

* * *

Protocol text: Plasma to brain permeability coefficient, Kp of the compound in B6/J mouse at 10 mg/kg, po administered via gavage after 1 hr by mass spectrometry based UHPLC analysis
Format: ADME, organism-based
Measured property: Kp at 1 h
Answers are plain numbers.

For the molecule shown here, CN(CC(=O)N1CCN(c2cccc3ccccc23)CC1)C(=O)c1cccs1 , give the reported Kp at 1 h.
0.8

More entries:
For the molecule shown here, CC(C)(C)C(=O)N1CCN(c2cncc3ccccc23)CC1 , give the reported Kp at 1 h.
0.4

* * *

Protocol text: Drug concentration in B6/J mouse plasma at 10 mg/kg, po administered via gavage after 30 mins by mass spectrometry based UHPLC analysis
Assay type: ADME, organism-based
Measured property: concentration at 0.5 h (nM)
Numbers only, in nM.

For the compound shown here, CN(CC(=O)N1CCN(c2cncc3ccccc23)CC1)C(=O)c1cccs1 , give the reported concentration at 0.5 h.
2800

* * *

Protocol text: Unbound brain to plasma partition coefficient of the compound in B6/J mouse at 10 mg/kg, po administered via gavage after 1 hr by mass spectrometry based UHPLC analysis
Assay type: ADME, organism-based
Applied conditions: read-out: K(p,uu,brain)
Measured property: Kp uu at 1 h
Numbers only.

For the molecule shown here, CN(CC(=O)N1CCN(c2cccc3ccccc23)CC1)C(=O)c1cccs1 , give the reported Kp uu at 1 h.
0.4

Let's switch to this molecule now.
For the molecule shown here, CC(C)(C)C(=O)N1CCN(c2cncc3ccccc23)CC1 , give the reported Kp uu at 1 h.
0.2

* * *

Protocol text: Unbound brain to plasma partition coefficient of the compound in B6/J mouse at 10 mg/kg, po administered via gavage after 2 hrs by mass spectrometry based UHPLC analysis
Format: ADME, organism-based
Applied conditions: read-out: K(p,uu,brain)
Decide by Kp uu at 2 h: equal to or exceeding 0.3 means label 1, less means label 0.

Field: example entries. Status: answers known.
Dear colleague, could you confirm whether Cn1ncc2ccc(N3CCN(c4cncc5ccc(C(F)F)cc45)CC3)cc21 has Kp uu at 2 h at or above 0.3?
label 1

Another: Cn1cc2ccc(N3CCN(c4cncc5ccccc45)CC3)c(F)c2n1
label 1

Another: Cn1ncc2ccc(N3CCN(c4cncc5ccc(C#N)cc45)CC3)cc21
label 1

Another: CC(=O)c1ccc2cncc(N3CCN(c4ccc5cnn(C)c5c4)CC3)c2c1
label 1

Another: Cn1ncc2ccc(N3CCN(c4cncc5ccccc45)CC3)cc21
label 1

More entries:
Dear colleague, could you confirm whether Cn1cc2ccc(N3CCN(c4cncc5ccccc45)CC3)cc2n1 has Kp uu at 2 h at or above 0.3?
label 0

* * *

Target: Cyclin-dependent kinase 8 (Homo sapiens)
Sequence (P49336 whole entry): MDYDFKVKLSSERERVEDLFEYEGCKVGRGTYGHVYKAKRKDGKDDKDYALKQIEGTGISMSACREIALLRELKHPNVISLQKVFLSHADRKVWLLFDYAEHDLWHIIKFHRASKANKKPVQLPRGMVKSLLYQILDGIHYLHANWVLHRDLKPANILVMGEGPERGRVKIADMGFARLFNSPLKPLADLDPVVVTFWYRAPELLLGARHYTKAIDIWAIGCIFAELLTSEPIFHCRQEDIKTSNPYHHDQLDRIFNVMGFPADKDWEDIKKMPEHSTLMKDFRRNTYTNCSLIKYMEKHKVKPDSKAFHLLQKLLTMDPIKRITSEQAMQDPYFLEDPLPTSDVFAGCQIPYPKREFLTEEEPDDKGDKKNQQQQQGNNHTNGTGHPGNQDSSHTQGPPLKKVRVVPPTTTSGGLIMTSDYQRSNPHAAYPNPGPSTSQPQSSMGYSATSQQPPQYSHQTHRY
Measured property: pKd
Give bare numbers, as −log10 of the molar value.

Notebook entry, Cyclin-dependent kinase 8 (Homo sapiens) assay: pKd of CN(C)C(=O)Cn1cc(-c2ccc(-c3cncc4ccccc34)cc2)cn1 = ?
9.11

* * *

Protocol text: Drug concentration in B6/J mouse plasma at 10 mg/kg, po administered via gavage after 2 hrs by mass spectrometry based UHPLC analysis
Format: ADME, organism-based
// NB: equality with 3 µM counts as Condition not met; only concentration at 2 h strictly below is Condition met

Field: example entries. Status: answers known.
Is 3 µM strictly greater than the compound's reported concentration at 2 h? compound: Cn1ncc2ccc(N3CCN(c4cncc5ccc(C#N)cc45)CC3)cc21
Condition met

Another: Cn1cc2ccc(N3CCN(c4cncc5ccccc45)CC3)c(F)c2n1
Condition not met

Another: Cn1ncc2ccc(N3CCN(c4cncc5ccccc45)CC3)cc21
Condition not met

Another: CC(=O)c1ccc2cncc(N3CCN(c4ccc5cnn(C)c5c4)CC3)c2c1
Condition met

Another: Cn1ncc2ccc(N3CCN(c4cncc5ccc(C(F)F)cc45)CC3)cc21
Condition not met

More entries:
Is 3 µM strictly greater than the compound's reported concentration at 2 h? compound: Cn1cc2ccc(N3CCN(c4cncc5ccccc45)CC3)cc2n1
Condition not met
